Where do these numbers come from? They come from ChEMBL document CHEMBL4138315.

Field: IC50H. Provide a value for each of the compounds that follow.
# test system: Opioid receptors; mu & delta (Homo sapiens, UniProt P41143+P35372)
# Sequence (P35372 whole entry, looked up): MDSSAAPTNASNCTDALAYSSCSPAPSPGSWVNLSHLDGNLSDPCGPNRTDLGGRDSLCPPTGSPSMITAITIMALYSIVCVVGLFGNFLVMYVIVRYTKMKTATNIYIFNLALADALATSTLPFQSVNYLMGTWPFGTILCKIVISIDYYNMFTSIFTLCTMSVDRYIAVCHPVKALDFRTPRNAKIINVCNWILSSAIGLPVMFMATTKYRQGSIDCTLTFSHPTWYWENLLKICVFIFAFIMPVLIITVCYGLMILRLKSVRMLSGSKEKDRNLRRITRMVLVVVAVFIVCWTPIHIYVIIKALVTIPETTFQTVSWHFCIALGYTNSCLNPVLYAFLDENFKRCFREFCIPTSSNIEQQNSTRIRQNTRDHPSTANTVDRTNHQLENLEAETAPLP
# Sequence (P41143 whole entry, looked up): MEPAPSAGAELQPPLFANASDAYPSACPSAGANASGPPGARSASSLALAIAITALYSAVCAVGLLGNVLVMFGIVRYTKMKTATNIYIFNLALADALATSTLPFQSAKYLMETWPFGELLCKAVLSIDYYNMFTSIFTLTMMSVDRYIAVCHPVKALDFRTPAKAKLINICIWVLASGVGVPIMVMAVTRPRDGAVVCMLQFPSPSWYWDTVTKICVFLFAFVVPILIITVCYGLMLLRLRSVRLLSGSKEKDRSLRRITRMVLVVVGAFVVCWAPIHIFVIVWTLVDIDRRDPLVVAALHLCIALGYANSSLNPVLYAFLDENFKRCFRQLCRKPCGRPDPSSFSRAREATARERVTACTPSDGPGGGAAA
# experimental protocol: Antagonist activity at human mu-delta opioid receptor heterodimer expressed in CHO cell membranes assessed as inhibition of CYM51010-induced [35S]-GTPgammaS binding at high site fraction preincubated for 5 mins followed by CYM51010 and [35S]-GTPgammaS addition measured after 80 mins
# Type: functional
Where a SMILES comes first, the peptide text is derived from it. [ ]: non-standard residue; d: D form. ξ: configuration not given here. ξTic = O=C(O)C1Cc2ccccc2CN1
Note: unit nM is implicit; provide only the numeric part.

Task: Which IC50H value belongs to N[C@@H](Cc1ccc(O)cc1)C(=O)N1Cc2ccccc2C[C@@H]1C(=O)NCC(=O)NCCC(=O)NCCCCCC(=O)N[C@H](CCCCNC(=O)CCCCCNC(=O)CNC(=O)[C@@H](Cc1cccc2ccccc12)NC(=O)[C@H](Cc1ccccc1)NC(=O)[C@@H]1CCCN1C(=O)[C@@H](N)Cc1ccc(O)cc1)C(=O)O ?
Output: 20

Task: Name the reported IC50H value associated with the compound NCCCC[C@@H](NC(=O)CCCNC(=O)CNC(=O)[C@H]1Cc2ccccc2CN1C(=O)[C@@H](N)Cc1ccc(O)cc1)C(=O)O
Output: 170

Task: Please look up its IC50H: N[C@@H](Cc1ccc(O)cc1)C(=O)N1Cc2ccccc2CC1C(=O)O (stereo partly specified) (H-Tyr-[ξTic]-OH)
Output: 250

Task: Give its IC50H value. Item: N[C@@H](Cc1ccc(O)cc1)C(=O)N1Cc2ccccc2C[C@@H]1C(=O)NCC(=O)NCCCC(=O)N[C@H](CCCCNC(=O)CCNC(=O)CNC(=O)[C@@H](Cc1cccc2ccccc12)NC(=O)[C@H](Cc1ccccc1)NC(=O)[C@@H]1CCCN1C(=O)[C@@H](N)Cc1ccc(O)cc1)C(=O)O
Output: 1.6

Task: Item N[C@@H](Cc1ccc(O)cc1)C(=O)N1Cc2ccccc2C[C@@H]1C(=O)NCC(=O)NCCCCC(=O)N[C@H](CCCCNC(=O)CCCCNC(=O)CNC(=O)[C@@H](Cc1cccc2ccccc12)NC(=O)[C@H](Cc1ccccc1)NC(=O)[C@@H]1CCCN1C(=O)[C@@H](N)Cc1ccc(O)cc1)C(=O)O has what recorded IC50H?
Output: 0.85
